Experiment: Drug loading and encapsulation efficiency of drug loaded PNPs comprising pGlu(0.6C10) (HPLC)
Type: physicochemical
Conditions: drug payload only, no polymer (N/A), 2.5 mg drug

{"columns": ["compound", "Drug loading"],
 "data": [
  ["CCCCCCCCCCNC(=O)CNC1(C)CC(OC2C(Oc3c4cc5cc3Oc3ccc(cc3Cl)C(O)C3NC(=O)C(NC(=O)C5NC(=O)C(CC(N)=O)NC(=O)C(NC(=O)C(CC(C)C)NC)C(O)c5ccc(c(Cl)c5)O4)c4ccc(O)c(c4)-c4c(O)cc(O)cc4C(C(=O)O)NC3=O)OC(CO)C(O)C2O)OC(C)C1O (stereo not shown)", "1.3%"],
  ["CN[C@H](CC(C)C)C(=O)N[C@H]1C(=O)N[C@@H](CC(N)=O)C(=O)N[C@H]2C(=O)N[C@H]3C(=O)N[C@H](C(=O)N[C@H](C(=O)O)c4cc(O)cc(O)c4-c4cc3ccc4O)[C@H](O[C@H]3C[C@](C)(N)[C@@H](O)[C@H](C)O3)c3ccc(c(Cl)c3)Oc3cc2cc(c3O[C@@H]2O[C@H](CO)[C@@H](O)[C@H](O)[C@H]2O[C@H]2C[C@](C)(NCc3ccc(-c4ccc(Cl)cc4)cc3)[C@@H](O)[C@H](C)O2)Oc2ccc(cc2Cl)[C@H]1O", "0.0%"],
  ["CCCCCCCCCCNCCNC1(C)CC(OC2C(Oc3c4cc5cc3Oc3ccc(cc3Cl)C(O)C(NC(=O)C(CC(C)C)NC)C(=O)NC(CC(N)=O)C(=O)NC5C(=O)NC3C(=O)NC(C(=O)CC(C(=O)O)c5cc(O)cc(O)c5-c5cc3ccc5O)C(O)c3ccc(c(Cl)c3)O4)OC(CO)C(O)C2O)OC(C)C1O (stereo not shown)", "0.0%"],
  ["CN[C@H](CC(C)C)C(=O)N[C@H]1C(=O)N[C@@H](CC(N)=O)C(=O)N[C@H]2C(=O)N[C@H]3C(=O)N[C@H](C(=O)N[C@H](C(=O)O)c4cc(O)cc(O)c4-c4cc3ccc4O)[C@H](O)c3ccc(c(Cl)c3)Oc3cc2cc(c3O[C@@H]2O[C@H](CO)[C@@H](O)[C@H](O)[C@H]2O[C@H]2C[C@](C)(N)[C@H](O)[C@H](C)O2)Oc2ccc(cc2Cl)[C@H]1O", "0.0%"]
]}
